Listing of recorded remaining activity at 10 µM by entry.
Molecular target: HsDYRK1A (Homo sapiens)
Construct: host or cells: Sf9 insect cells (baculovirus)
Assay: ADP-Glo kinase assay
Format: biochemical
Details: 10 µM, n=2; read-out: % of residual activity Hs_DYRK1A
MEASURED QUANTITY: remaining activity at 10 µM (%)

CC(C)(C)OC(=O)N[C@H]1CC[C@@H](n2cc(COc3cccc4cnc(Nc5cccc(Cl)c5)nc34)nn2)CC1 [15a] = 63
CC(C)(C)OC(=O)N[C@H]1CC[C@H](n2cc(COc3cccc4cnc(Nc5cccc(Cl)c5)nc34)nn2)CC1 [18a] = 66
CC(C)(C)OC(=O)N[C@H]1CC[C@@H](n2cc(COc3cccc4cnc(Nc5cc(Cl)cc(Cl)c5)nc34)nn2)CC1 [15b] = 74
Cc1ccc(-n2cc(COc3cccc4cnc(Nc5ccccc5)nc34)nn2)c([N+](=O)[O-])c1 = 92
CC(C)(C)OC(=O)N[C@H]1CC[C@H](n2cc(COc3cccc4cnc(Nc5cc(Cl)cc(Cl)c5)nc34)nn2)CC1 [18b] = 85
O=[N+]([O-])c1cc(O)ccc1-n1cc(COc2cccc3cnc(Nc4cccc(Cl)c4)nc23)nn1 [12c] = 60

* * *

Target: Hs_CDK5/p25 (Homo sapiens)
Construct: host or cells: bacteria
Sequence (Q00535 whole entry): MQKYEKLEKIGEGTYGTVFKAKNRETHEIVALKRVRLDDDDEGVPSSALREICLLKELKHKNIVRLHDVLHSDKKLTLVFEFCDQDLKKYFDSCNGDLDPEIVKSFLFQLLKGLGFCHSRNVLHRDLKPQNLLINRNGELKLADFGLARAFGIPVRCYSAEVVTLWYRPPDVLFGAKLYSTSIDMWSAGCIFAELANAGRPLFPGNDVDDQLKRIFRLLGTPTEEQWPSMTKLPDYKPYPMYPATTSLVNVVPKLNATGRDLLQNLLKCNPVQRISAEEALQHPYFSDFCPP
Sequence (Q15078 99-307 partner limits assumed): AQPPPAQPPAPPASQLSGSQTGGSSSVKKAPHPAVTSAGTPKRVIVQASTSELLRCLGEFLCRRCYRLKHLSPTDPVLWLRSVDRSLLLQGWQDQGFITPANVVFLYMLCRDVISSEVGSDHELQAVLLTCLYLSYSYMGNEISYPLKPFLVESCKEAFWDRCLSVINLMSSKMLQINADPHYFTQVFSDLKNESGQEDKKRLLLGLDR
Experiment: ADP-Glo kinase assay, primary screen
Assay type: biochemical
Details: 1 µM, n=2; read-out: % of residual activity Hs_CDK5/p25
Listing of recorded remaining activity at 1 µM by entry.
MEASURED QUANTITY: remaining activity at 1 µM (%)

O=[N+]([O-])c1cc(O)ccc1-n1cc(COc2cccc3cnc(Nc4cccc(Cl)c4)nc23)nn1 [12c] = 71
CC(C)(C)OC(=O)N[C@H]1CC[C@H](n2cc(COc3cccc4cnc(Nc5cc(Cl)cc(Cl)c5)nc34)nn2)CC1 [18b] = 85

* * *

Molecular target: Hs_CK1ε (Homo sapiens, UniProt P49674)
Construct: host or cells: Sf9 insect cells (baculovirus)
Sequence (P49674 whole entry): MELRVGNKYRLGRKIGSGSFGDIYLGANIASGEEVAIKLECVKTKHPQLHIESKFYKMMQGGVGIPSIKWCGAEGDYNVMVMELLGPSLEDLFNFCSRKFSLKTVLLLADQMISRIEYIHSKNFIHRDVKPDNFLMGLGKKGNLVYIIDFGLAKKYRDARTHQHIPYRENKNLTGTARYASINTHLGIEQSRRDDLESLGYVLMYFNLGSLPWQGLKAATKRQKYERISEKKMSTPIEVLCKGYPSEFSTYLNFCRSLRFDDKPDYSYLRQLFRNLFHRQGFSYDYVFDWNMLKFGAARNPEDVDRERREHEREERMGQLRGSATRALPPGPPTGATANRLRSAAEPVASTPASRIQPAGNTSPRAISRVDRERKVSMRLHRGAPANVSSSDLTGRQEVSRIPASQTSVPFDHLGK
Test: ADP-Glo kinase assay, primary screen
Assay type: biochemical
Details: 1 µM, n=2; read-out: % of residual activity Hs_CK1ε
MEASURED QUANTITY: remaining activity at 1 µM

CC(C)(C)OC(=O)N[C@H]1CC[C@@H](n2cc(COc3cccc4cnc(Nc5cc(Cl)cc(Cl)c5)nc34)nn2)CC1 [15b] = ≥ 100%
CC(C)(C)OC(=O)N[C@H]1CC[C@H](n2cc(COc3cccc4cnc(Nc5cccc(Cl)c5)nc34)nn2)CC1 [18a] = ≥ 100%
CC(C)(C)OC(=O)N[C@H]1CC[C@@H](n2cc(COc3cccc4cnc(Nc5cccc(Cl)c5)nc34)nn2)CC1 [15a] = ≥ 100%
CC(C)(C)OC(=O)N[C@H]1CC[C@H](n2cc(COc3cccc4cnc(Nc5cc(Cl)cc(Cl)c5)nc34)nn2)CC1 [18b] = ≥ 100%

* * *

Experiment: cytotoxic assay, nuclei count (Hoechst, HCS)
Assay type: cell-based, human
Settings: human, human skin fibroblasts (non-cancerous reference cells); 48 h treatment; some cells add low/moderate/high amplitude; read-out: Cytotoxic studies IC50 Fibroblasts
Listing of recorded IC50 at 48 h by entry.
MEASURED QUANTITY: IC50 at 48 h

O=[N+]([O-])c1cc(CO)ccc1-n1cc(COc2cccc3cnc(Nc4cccc(Cl)c4)nc23)nn1 [12e] = 6 µM
CC(C)(C)OC(=O)N[C@H]1CC[C@H](n2cc(COc3cccc4cnc(Nc5cccc(Cl)c5)nc34)nn2)CC1 [18a] = > 25 µM
O=[N+]([O-])c1cc(O)ccc1-n1cc(COc2cccc3cnc(Nc4cccc(Cl)c4)nc23)nn1 [12c] = 6 µM
CC(C)(C)OC(=O)N[C@H]1CC[C@@H](n2cc(COc3cccc4cnc(Nc5cccc(Cl)c5)nc34)nn2)CC1 [15a] = > 25 µM
Cc1ccc(-n2cc(COc3cccc4cnc(Nc5ccccc5)nc34)nn2)c([N+](=O)[O-])c1 = > 25 µM
